Item-by-item account of pEC50
Biological target: Gal4-RORγ-LBD (Homo sapiens, UniProt P51449)
Construct: expressed in transfected cells; host or cells: HEK-293 cells (pcDNA3.1neo plasmid)
Experiment: Gal4-RORγ Luciferase Reporter Assay in HEK-293T Cells
Format: cell-based
Conditions: HEK-293 cells, 2 μM ursolic acid
pEC50: −log10 of the molar value.

Guide cases for pEC50, answers given:
CC(=O)N[C@H]1C[C@](C[C@H]2CN(S(=O)(=O)c3cccc(C(F)(F)F)c3)c3cc(-c4cc(F)ccc4F)ccc3O2)(C(=O)O)C1 [Compound 89B] = 5.30 to 6.30
O=C(O)C1CC(=O)N(C[C@H]2CN(S(=O)(=O)c3cccc(C(F)(F)F)c3)c3cc(-c4cc(F)ccc4F)ccc3O2)C1 (some centres unmarked) = 5.30 to 6.30
Cc1cc(C)cc(-c2ccc3c(c2)N(S(=O)(=O)c2cccc(C(F)(F)F)c2)C[C@H](CC2(C(=O)O)CCOCC2)O3)c1 [Compound 78G] = > 6.30
CC[C@H](C[C@H]1CN(S(=O)(=O)c2cccc(C(F)(F)F)c2)c2cc(-c3cc(F)cc(F)c3Cl)ccc2O1)C(=O)O [Compound 46F] = 5.30 to 6.30
O=C(O)C1(C[C@H]2CN(S(=O)(=O)c3cccc(C(F)(F)F)c3)c3cc(-c4cc(F)cc(F)c4)ccc3O2)CCOCC1 [Compound 78N] = > 6.30

Entry C=CCC(=O)NC[C@H]1CN(S(=O)(=O)c2cccc(C(F)(F)F)c2)c2cc(-c3cc(F)cc(OC(F)F)c3)ccc2O1 [Compound 30DI] — recorded pEC50 = > 6.30

Entry CC(C)(C[C@H]1CN(S(=O)(=O)c2cccc(C(F)(F)F)c2)c2cc(-c3cccc4c3OC(F)(F)O4)ccc2O1)C(=O)O [Compound 32AC] — recorded pEC50 = > 6.30

Entry CC(C)(C[C@H]1CN(S(=O)(=O)c2cccc(C(F)(F)F)c2)c2cc(-c3cc(Cl)cc(F)c3Cl)ccc2O1)C(=O)O [Compound 32AW] — recorded pEC50 = > 6.30

Entry CC(C)(O)C(=O)NC[C@H]1CN(S(=O)(=O)c2cccc(C(F)(F)F)c2)c2cc(-c3cc(F)ccc3F)ccc2O1 — recorded pEC50 = > 6.30

Entry O=C(O)C1(C[C@H]2CN(S(=O)(=O)c3cccc(C(F)(F)F)c3)c3cc(-c4cc(F)cc(F)c4Cl)ccc3O2)COC1 [Compound 51B] — recorded pEC50 = > 6.30

Entry Cc1c(Cl)cccc1-c1ccc2c(c1)N(S(=O)(=O)c1cccc(C(F)(F)F)c1)C[C@H](CC(C)(C)C(=O)O)O2 [Compound 32AZ] — recorded pEC50 = > 6.30

----------
Item-by-item account of pEC50
Biological target: Gal4-RORγ-LBD (Homo sapiens, UniProt P51449)
Construct: expressed in transfected cells; host or cells: HEK-293 cells (pcDNA3.1neo plasmid)
Sequence (P51449 269-508 limits assumed): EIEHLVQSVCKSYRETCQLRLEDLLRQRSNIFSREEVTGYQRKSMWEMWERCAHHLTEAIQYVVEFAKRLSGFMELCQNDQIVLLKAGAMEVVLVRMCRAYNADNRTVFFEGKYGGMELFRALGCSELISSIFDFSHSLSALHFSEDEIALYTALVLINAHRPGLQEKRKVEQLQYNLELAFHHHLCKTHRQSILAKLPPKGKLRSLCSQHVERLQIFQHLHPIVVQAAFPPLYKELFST
Experiment: Gal4-RORγ Luciferase Reporter Assay in HEK-293T Cells
Format: cell-based
Settings: HEK-293 cells, luciferase reporter, with 2 μM ursolic acid
pEC50: −log10 of the molar value.

Entry CC1(C(=O)NC[C@H]2CN(S(=O)(=O)c3cccc(C(F)(F)F)c3)c3cc(-c4cc(F)ccc4F)ccc3O2)CC1 [Compound 30AV] — recorded pEC50 = > 6.30

Entry COc1cc(-c2ccc3c(c2)N(S(=O)(=O)c2cccc(C(F)(F)F)c2)C[C@H](CCC(=O)O)O3)nc(N(C)C)c1 [Compound 4AP] — recorded pEC50 = > 6.30

Entry COc1cccc(C#N)c1-c1ccc2c(c1)N(S(=O)(=O)c1cccc(C(F)(F)F)c1)C[C@H](CCC(=O)O)O2 [Compound 2BJ] — recorded pEC50 = < 5.00

Entry CC(C)(O)C(=O)NC[C@H]1CN(S(=O)(=O)c2cccc(C(F)(F)F)c2)c2cc(-c3cccc(C(F)(F)F)n3)ccc2O1 [Compound 30I] — recorded pEC50 = > 6.30

Entry O=C(O)CC[C@H]1CN(S(=O)(=O)c2cccc(C(F)(F)F)c2)c2cc(-c3nc(C(F)(F)F)cs3)ccc2O1 [Compound 4G] — recorded pEC50 = 5.30 to 6.30

Entry CC(=O)N[C@@H](C(=O)NC[C@H]1CN(S(=O)(=O)c2cccc(C(F)(F)F)c2)c2cc(-c3cc(F)ccc3F)ccc2O1)C(C)C [Compound 30AS] — recorded pEC50 = 5.30 to 6.30

----------
Biological target: RORγ-LBD (Homo sapiens)
Assay: RORγ-Ligand Binding Domain (LBD) TR-FRET Assay
pEC50: −log10 of the molar value.
Item-by-item account of pEC50

Cc1c(Cl)cccc1-c1ccc2c(c1)N(S(=O)(=O)c1cccc(C(F)(F)F)c1)C[C@H](CC(C)(C)C(=O)O)O2 [Compound 32AZ] = > 6.30

Entry CC(C)n1cc(-c2ccc3c(c2)N(S(=O)(=O)c2cccc(C(F)(F)F)c2)C[C@H](CCC(=O)O)O3)cn1 — recorded pEC50 = > 6.30

Entry O=C(NC[C@H]1CN(S(=O)(=O)c2cccc(C(F)(F)F)c2)c2cc(-c3cc(F)ccc3F)ccc2O1)C1CCC1 [Compound 30BB] — recorded pEC50 = > 6.30

Entry O=C(O)CC[C@H]1CN(S(=O)(=O)c2cccc(C(F)(F)F)c2)c2cc(-c3ccc(F)c(F)c3)ccc2O1 — recorded pEC50 = > 6.30

----------
Biological target: Gal4-RORγ-LBD (Homo sapiens, UniProt P51449)
Construct: expressed in transfected cells; host or cells: HEK-293 cells (pcDNA3.1neo plasmid)
Sequence (P51449 269-508 limits assumed): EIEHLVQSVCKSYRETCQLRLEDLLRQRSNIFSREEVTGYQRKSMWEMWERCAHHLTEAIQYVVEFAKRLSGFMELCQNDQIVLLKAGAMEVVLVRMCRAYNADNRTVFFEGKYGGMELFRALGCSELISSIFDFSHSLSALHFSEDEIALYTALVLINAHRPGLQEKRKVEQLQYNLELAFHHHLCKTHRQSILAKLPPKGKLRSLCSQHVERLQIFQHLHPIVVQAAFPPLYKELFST
Experiment: Gal4-RORγ Luciferase Reporter Assay in HEK-293T Cells
Type: cell-based
Conditions: HEK-293 cells, luciferase reporter, with 2 μM ursolic acid
pEC50: −log10 of the molar value.
Item-by-item account of pEC50

Guide cases for pEC50, answers given:
O=C(O)CC[C@H]1CN(S(=O)(=O)c2cccc(C(F)(F)F)c2)c2cc(-c3cc(C(F)(F)F)ccn3)ccc2O1 = 5.30 to 6.30
O=C(O)CC[C@H]1CN(S(=O)(=O)c2cccc(C(F)(F)F)c2)c2cc(-c3ccc(F)c(Cl)c3)ccc2O1 = 5.30 to 6.30
O=C(O)CC[C@H]1CN(S(=O)(=O)c2cccc(C(F)(F)F)c2)c2cc(-c3cccc(OCCO)c3)ccc2O1 = < 5.00
O=C(O)CC[C@H]1CN(S(=O)(=O)c2cc(F)cc(C(F)(F)F)c2)c2cc(-c3cc(F)ccc3F)ccc2O1 = > 6.30

Entry CS(=O)(=O)c1ccccc1-c1ccc2c(c1)N(S(=O)(=O)c1cccc(C(F)(F)F)c1)C[C@H](CCC(=O)O)O2 — recorded pEC50 = 5.30 to 6.30

Entry O=C(O)CC[C@H]1CN(S(=O)(=O)c2cccc(C(F)(F)F)c2)c2cc(-c3cccc(F)c3F)c(Cl)cc2O1 [Compound 22B] — recorded pEC50 = > 6.30

Entry O=C(O)CC[C@H]1CN(S(=O)(=O)c2cccc(C(F)(F)F)c2)c2cc(-c3cccc(Cl)c3)cc(F)c2O1 — recorded pEC50 = > 6.30

----------
Molecular target: Gal4-RORγ-LBD (Homo sapiens)
Construct: expressed in transfected cells; host or cells: HEK-293 cells (pcDNA3.1neo plasmid)
Test: Gal4-RORγ Luciferase Reporter Assay in HEK-293T Cells
Assay type: cell-based
Conditions: HEK-293 cells, luciferase reporter, with 2 μM ursolic acid
pEC50: −log10 of the molar value.
Item-by-item account of pEC50

Guide cases for pEC50, answers given:
C[C@@H](O)C(=O)NC[C@H]1CN(S(=O)(=O)c2cccc(C(F)(F)F)c2)c2cc(-c3cc(F)ccc3F)ccc2O1 [Compound 30AF] = > 6.30
C[C@@](O)(CC[C@H]1CN(S(=O)(=O)c2cccc(C(F)(F)F)c2)c2cc(-c3cc(F)ccc3F)ccc2O1)C(=O)O = 5.30 to 6.30
Cc1nnc(-c2ccc3c(c2)N(S(=O)(=O)c2cccc(C(F)(F)F)c2)C[C@H](CCC(=O)O)O3)o1 = < 5.00
CC(C)C(=O)NC[C@H]1CN(S(=O)(=O)c2cccc(C(F)(F)F)c2)c2cc(-c3cc(F)ccc3F)ccc2O1 [Compound 30AX] = > 6.30
COc1cc(F)cc(-c2ccc3c(c2)N(S(=O)(=O)c2cccc(C(F)(F)F)c2)C[C@H](CC(C)(C)C(=O)O)O3)c1F [Compound 32C] = > 6.30
O=C(O)CC[C@H]1CN(S(=O)(=O)c2cccc(C(F)(F)F)c2)c2cc(-c3cccc(Cl)c3)c(Cl)cc2O1 = > 6.30
Cc1nn(C)c(C)c1-c1ccc2c(c1)N(S(=O)(=O)c1cccc(C(F)(F)F)c1)C[C@H](CCC(=O)O)O2 = 5.30 to 6.30
CC(C)(C[C@H]1CN(S(=O)(=O)c2cccc(C(F)(F)F)c2)c2cc(-c3cc(F)cc(F)c3)ccc2O1)C(=O)O [Compound 32N] = > 6.30

Entry COc1cc(S(=O)(=O)N2C[C@H](CNC(=O)C(C)(C)O)Oc3ccc(-c4cc(F)ccc4F)cc32)ccc1F [Compound 30Q] — recorded pEC50 = > 6.30

Entry COc1ccnc(-c2ccc3c(c2)N(S(=O)(=O)c2cccc(C(F)(F)F)c2)C[C@H](CCC(=O)O)O3)c1 — recorded pEC50 = 5.30 to 6.30

Entry O=C(O)CC[C@H]1CN(S(=O)(=O)c2cccc(C(F)(F)F)c2)c2cc(-c3ccc(Cl)cc3Cl)ccc2O1 — recorded pEC50 = < 5.00

Entry C[C@@](O)(C(=O)NC[C@H]1CN(S(=O)(=O)c2cccc(C(F)(F)F)c2)c2cc(-c3cc(F)ccc3F)ccc2O1)C(F)(F)F [Compound 30V] — recorded pEC50 = > 6.30

Entry CC(C)(O)CC[C@H]1CN(S(=O)(=O)c2cccc(C(F)(F)F)c2)c2cc(-c3cc(F)ccc3F)ccc2O1 — recorded pEC50 = > 6.30

Entry O=S(=O)(c1cccc(C(F)(F)F)c1)N1C[C@H](CCCO)Oc2ccc(-c3ccc(F)c(F)c3)cc21 [Compound 34B] — recorded pEC50 = > 6.30

Entry Cn1cnc(-c2ccc3c(c2)N(S(=O)(=O)c2cccc(C(F)(F)F)c2)C[C@H](CCC(=O)O)O3)c1 — recorded pEC50 = < 5.00

Entry COc1cccc(-c2ccc3c(c2)N(S(=O)(=O)c2cccc(C(F)(F)F)c2)C[C@H](CCCC(=O)O)O3)c1 [Compound 21B] — recorded pEC50 = > 6.30

Entry CN(C)c1cccc(-c2ccc3c(c2)N(S(=O)(=O)c2cccc(C(F)(F)F)c2)C[C@H](CC(C)(C)C(=O)O)O3)n1 [Compound 32D] — recorded pEC50 = > 6.30

Entry CN(C)c1cccc(-c2ccc3c(c2)N(S(=O)(=O)c2cccc(C(F)(F)F)c2)C[C@H](CNC(=O)C(C)(C)O)O3)n1 [Compound 30H] — recorded pEC50 = > 6.30
